molecular target: human cathepsin S (Homo sapiens, UniProt P25774); construct: made in house; host or cells: baculovirus expression system; experiment: Cathepsin S Ki determination; format: biochemical; conditions: baculovirus-expressed human cathepsin S, boc-Val-Leu-Lys-AMC substrate, pH 6.5; read-out: Ki Cat. S
Sequence (P25774 115-331): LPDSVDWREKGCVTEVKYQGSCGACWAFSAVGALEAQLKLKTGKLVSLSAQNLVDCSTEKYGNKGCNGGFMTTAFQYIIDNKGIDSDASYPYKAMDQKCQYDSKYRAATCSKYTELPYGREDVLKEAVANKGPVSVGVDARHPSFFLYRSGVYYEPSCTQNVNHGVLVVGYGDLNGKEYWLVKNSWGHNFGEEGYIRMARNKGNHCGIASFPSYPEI
pKi: −log10 of the molar value.
Tick Condition met if pKi is 9 or greater. Tick Condition not met if pKi is less than 9.

| smiles_string | answer_label |
| --- | --- |
| CC1(C[C@H](NC(=O)OC(C)(C)C)C(=O)NC2(C(=O)C(=O)NC3CC3)CCC2)CCCC1 | Condition not met |
| Cn1ccc(NC(=O)C(=O)C2(NC(=O)[C@H](CC3(F)CCCC3)NC(=O)OC(C)(C)C)CCC2)n1 | Condition met |

###

What follows is a collection of pKi values obtained with UniProtKB P25774.
pKi: −log10 of the molar value.
value_type: pKi

| compound | endpoint_value |
| --- | --- |
| COC1CC(NC(=O)[C@H](CC2(F)CCCC2)NC(=O)OC(C)(C)C)(C(=O)C(=O)Nc2ccn(C)n2)C1 (stereo partly shown) [Example 49] | 9.19 |
| Cn1ccc(NC(=O)C(=O)C2(NC(=O)C(CC3CCCC3)NC(=O)OC(C)(C)C)CC(F)C2)n1 (stereo not shown) | 8.22 |
| COC1CC(NC(=O)[C@H](CC2(F)CCCC2)NC(=O)OC(C)(C)C)(C(=O)C(=O)Nc2ccn(C)n2)C1 (single isomer, unassigned) [Example 73] | 9.10 |
| CCOC(=O)NC(CC1(C)CCCC1)C(=O)NC1(C(=O)C(=O)Nc2ccn(C)n2)CC(F)C1 (stereo not shown) | 9.00 |

###

molecular target: UniProt:P43235; experiment: Determination of cathepsin K proteolytic catalytic activity (Ki); settings: human recombinant enzyme, H-D-Ala-Leu-Lys-AMC substrate; read-out: Ki Cat. K
Sequence (P43235 115-329): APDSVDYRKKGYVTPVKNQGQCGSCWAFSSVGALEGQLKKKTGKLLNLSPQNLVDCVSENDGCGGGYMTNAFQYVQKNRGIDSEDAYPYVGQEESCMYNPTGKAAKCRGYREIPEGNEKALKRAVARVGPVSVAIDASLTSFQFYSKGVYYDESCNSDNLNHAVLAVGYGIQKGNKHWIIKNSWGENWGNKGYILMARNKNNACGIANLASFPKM
Item-by-item account of Ki

| compound | measure_unit | Ki |
| --- | --- | --- |
| CCOC(=O)NC(CC(C)(C)C)C(=O)NC1(C(=O)C(=O)Nc2ccn(C)n2)CC(F)C1 (stereo not drawn) | nM | 430 |
| Cn1ccc(NC(=O)C(=O)C2(NC(=O)C(CC3CCCC3)NC(=O)OC(C)(C)C)CC(F)C2)n1 (stereo not drawn) | nM | 1100 |
| CCOC(=O)N[C@@H](CC1(F)CCCC1)C(=O)NC1(C(=O)C(=O)NCCCN2CCN(C)CC2)CCC1 | nM | 1400 |
| Cc1csc(NC(=O)C(=O)C2(NC(=O)[C@H](CC3(C)CCCC3)NC(=O)OC(C)(C)C)CCC2)n1 | nM | 95000 |
| CC(CF)OC(=O)NC(CC1(F)CCCC1)C(=O)NC1(C(=O)C(=O)Nc2ccn(C)n2)CCC1 (stereo not drawn) | nM | 440 |
| Cn1ccc(NC(=O)C(=O)C2(NC(=O)[C@H](CC3(F)CCCC3)NC(=O)OC(C)(C)C)CCC2)n1 | nM | 98 |
| CC(C)(C)OC(=O)N[C@@H](CC1(F)CCCC1)C(=O)NC1(C(=O)C(=O)Nc2cc[nH]n2)CCC1 | nM | 290 |
| CCOC(=O)NC(CC1(C)CCCC1)C(=O)NC1(C(=O)C(=O)Nc2ccn(C)n2)CC(F)C1 (stereo not drawn) | nM | 1200 |
| COC1CC(NC(=O)[C@H](CC2(F)CCCC2)NC(=O)OC(C)(C)C)(C(=O)C(=O)Nc2ccn(C)n2)C1 (single isomer, unassigned) [Example 73] | nM | 250 |
| CC(C)OC(=O)NC(CC1(F)CCCC1)C(=O)NC1(C(=O)C(=O)Nc2ccn(C)n2)CC(F)C1 (stereo not drawn) | nM | 410 |
| CCOC(=O)NC(CC1(F)CCCC1)C(=O)NC1(C(=O)C(=O)Nc2ccn(C)n2)CC(OC)C1 (stereo not drawn) | nM | 640 |
| Cn1ccc(NC(=O)C(=O)C2(NC(=O)C(CC3(C)CCC3)NC(=O)OC(C)(C)C)CC(F)C2)n1 (stereo not drawn) | nM | 150 |
| COC(=O)N[C@@H](CC1(C)CCCC1)C(=O)N[C@]1(C(=O)C(=O)Nc2ccn(C)n2)C[C@@H](F)C1 | nM | 1100 |
| Cn1ccc(NC(=O)C(=O)C2(NC(=O)[C@H](CC3(F)CCCC3)NC(=O)OC(C)(C)C)CC(F)(F)C2)n1 | nM | 170 |
| COC1CC(NC(=O)[C@H](CC2(F)CCCC2)NC(=O)OC(C)(C)C)(C(=O)C(=O)Nc2ccn(C)n2)C1 (stereo partly drawn) [Example 49] | nM | 240 |
| CCOC(=O)NC(CC1(C)CCCC1)C(=O)NC1(C(=O)C(=O)Nc2ccn(C)n2)CC(OC)C1 (stereo not drawn) | nM | 1400 |
| [2H]C([2H])([2H])n1ccc(NC(=O)C(=O)C2(NC(=O)C(CC3(F)CCCC3)NC(=O)OC(C)(C)C)CC(F)C2)n1 (stereo not drawn) | nM | 100 |
| Cn1cnc(NC(=O)C(=O)C2(NC(=O)[C@H](CC3(C)CCCC3)NC(=O)OC(C)(C)C)CCC2)c1 | nM | 610 |
| CC(C)(C)OC(=O)N[C@@H](CC1(F)CCCC1)C(=O)NC1(C(=O)C(=O)NC2CC2)CC(F)C1 (stereo partly drawn) | nM | 3800 |
| CC1(C[C@H](NC(=O)OC(C)(C)C)C(=O)NC2(C(=O)C(=O)NC3CC3)CCC2)CCCC1 | nM | 4400 |
| Cn1ccc(NC(=O)C(=O)C2(NC(=O)[C@H](CC3(F)CCCC3)NC(=O)OC3COC3)CCC2)n1 | nM | 340 |

###

pKi: −log10 of the molar value.
Lab note: pKi readings collected with human cathepsin S (Homo sapiens, UniProt P25774) for the following compounds.
value_type: pKi

| compound | assayed_target | endpoint_value |
| --- | --- | --- |
| CC(C)OC(=O)NC(CC1(F)CCCC1)C(=O)NC1(C(=O)C(=O)Nc2ccn(C)n2)CC(F)C1 (centres unmarked) | human cathepsin S (Homo sapiens, UniProt P25774) | 8.74 |
| CCOC(=O)NC(CC1(C)CCCC1)C(=O)NC1(C(=O)C(=O)Nc2ccn(C)n2)CC(OC)C1 (centres unmarked) | human cathepsin S (Homo sapiens, UniProt P25774) | 9.15 |
| [2H]C([2H])([2H])n1ccc(NC(=O)C(=O)C2(NC(=O)C(CC3(F)CCCC3)NC(=O)OC(C)(C)C)CC(F)C2)n1 (centres unmarked) | human cathepsin S (Homo sapiens, UniProt P25774) | 9.19 |
| CC(CF)OC(=O)NC(CC1(F)CCCC1)C(=O)NC1(C(=O)C(=O)Nc2ccn(C)n2)CCC1 (centres unmarked) | human cathepsin S (Homo sapiens, UniProt P25774) | 8.74 |
| Cn1cnc(NC(=O)C(=O)C2(NC(=O)[C@H](CC3(C)CCCC3)NC(=O)OC(C)(C)C)CCC2)c1 | human cathepsin S (Homo sapiens, UniProt P25774) | 9.00 |
